test system: human MC4R (Homo sapiens)
Construct: expressed in transfected cells
Sequence (P32245 whole entry): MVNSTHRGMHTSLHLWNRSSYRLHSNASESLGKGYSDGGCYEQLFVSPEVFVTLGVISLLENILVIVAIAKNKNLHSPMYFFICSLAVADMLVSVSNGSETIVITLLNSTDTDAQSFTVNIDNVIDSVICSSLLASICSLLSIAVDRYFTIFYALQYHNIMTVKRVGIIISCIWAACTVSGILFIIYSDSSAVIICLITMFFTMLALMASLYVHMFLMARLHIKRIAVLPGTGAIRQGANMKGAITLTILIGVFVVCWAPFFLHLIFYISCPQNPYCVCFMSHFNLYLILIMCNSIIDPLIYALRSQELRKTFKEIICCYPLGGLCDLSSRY
test name: Functional cAMP assay (CisBio HTRF) in BHK cells expressing human MC4R
Format: cell-based
condition details: BHK cells expressing human MC4R; '>' = highest dose used with no response; read-out: MC4R cAMP EC50
Protocol: In order to assess the potency of the compounds on human MC1R and human MC4R cAMP signalling was measured. cAMP induction was measured by c-AMPdynamic2 assay, HTRF 62AM4PEC system from CisBio for the human MC1R and human MC4R according to the protocol provided by the vendor. BHK cells expressing the human MC1 or MC4 receptor were generated by stable transfection with expression vectors encoding the cDNA of either MC1R or MC4R. […]
Positions of bridges follow the written chain, without caps; N, C: chain ends. Non-standard residues stand in square brackets, D forms with d. Residues, ends and D or L forms follow the SMILES beside them. Thz = O=C(O)[C@@H]1CSCN1; Dab = NCC[C@H](N)C(=O)O; Aib = CC(C)(N)C(=O)O
For each of the compounds below, state its EC50.
One number for each entry, in nM.

// each listed compound needs a value for EC50
1. C[C@@H]1NC(=O)[C@@H]2CSSC[C@H](NC(=O)[C@H](CCCNC(=N)N)NC(=O)[C@H](CCCCN)NC(=O)[C@H](CCCCN)NC(=O)[C@H](Cc3c[nH]cn3)NC1=O)C(=O)N1CCC[C@H]1C(=O)N[C@@H](Cc1c[nH]cn1)C(=O)N[C@H](Cc1ccccc1)C(=O)N[C@@H](Cc1c[nH]cn1)C(=O)N[C@@H](Cc1c[nH]c3ccccc13)C(=O)N2 [Chem. 96] (cyclo(AHKKRCPH[dF]HWC); disulfide 6-12)
2. CC1(C)NC(=O)[C@@H]2CSSC[C@H](NC(=O)[C@H](Cc3c[nH]c4ccccc34)NC(=O)[C@H](CCN)NC(=O)[C@@H](Cc3ccccc3)NC(=O)[C@H](Cc3c[nH]cn3)NC1=O)C(=O)NC(C)(C)C(=O)N[C@@H](Cc1c[nH]cn1)C(=O)N[C@H](Cc1ccccc1)C(=O)N[C@@H](CCN)C(=O)N[C@@H](Cc1c[nH]c3ccccc13)C(=O)N2 [Chem. 46] (cyclo([Aib]H[dF][Dab]WC[Aib]H[dF][Dab]WC); disulfide 6-12)
3. C[C@@H]1NC(=O)[C@H](CCCCN)NC(=O)[C@@H]2CSSC[C@H](NC(=O)[C@H](Cc3c[nH]c4ccccc34)NC(=O)[C@H](C)NC(=O)[C@@H](CCCCN)NC1=O)C(=O)N1CSC[C@H]1C(=O)N[C@@H](Cc1c[nH]cn1)C(=O)N[C@H](Cc1ccccc1)C(=O)N[C@@H](Cc1c[nH]cn1)C(=O)N[C@@H](Cc1c[nH]c3ccccc13)C(=O)N2 [Chem. 114] (cyclo(AWC[Thz]H[dF]HWCKA[dK]); disulfide 3-9)
4. C[C@@H]1NC(=O)[C@@H]2CSSC[C@H](NC(=O)[C@H](Cc3c[nH]c4ccccc34)NC(=O)[C@H](CCCCN)NC(=O)[C@H](CCCCN)NC(=O)[C@H](CCCCN)NC1=O)C(=O)N[C@H](CCCCN)C(=O)N[C@@H](Cc1c[nH]cn1)C(=O)N[C@H](Cc1ccccc1)C(=O)N[C@@H](Cc1c[nH]cn1)C(=O)N[C@@H](Cc1c[nH]c3ccccc13)C(=O)N2 [Chem. 84] (cyclo(AKKKWC[dK]H[dF]HWC); disulfide 6-12)

0.04
5.65
0.04
0.59
